Please go through the items and note down their pIC50.
# System: phosphorylation level of intracellular protein kinase (ERK) in MOLM13 cells
# assay.name: Phosphorylated protein kinase (p-ERK) cell experiment (AlphaLISA)
# Assay type: cell-based
# test.conditions: Homo sapiens, MOLM-13; MOLM13 cells, Table 4; read-out: p-ERK IC50
Answers are plain numbers, as −log10 of the molar value.

Previously resolved entries follow.
compound	pIC50
C[C@@H]1OCC2(CCN(c3ncc(Sc4ccnc(N)c4Cl)c4nccn34)CC2)[C@@H]1N	6.82
N[C@@H]1CC(O)CC12CCN(c1ncc(Sc3cccc(Cl)c3Cl)c3nccn13)CC2 (stereo partly shown)	7.55
Cc1nccc(Sc2cnc(N3CCC4(CC3)CO[C@@H](C)[C@H]4N)n3cnnc23)c1Cl	6.43

Form field: reported pIC50 of `C[C@@H]1OCC2(CCN(c3ncc(Sc4cc(N)ncc4Cl)c4nccn34)CC2)[C@@H]1N` 7.03

* * *

# System: MOLM-13 cells
# assay.name: MOLM-13 cell proliferation experiment
# Format: cell-based
# test.conditions: Homo sapiens, MOLM-13, read-out: MOLM-13 cell proliferation IC50
# Procedure: After 3 days, 5 µL of CellTiter-Glo reagent (Promega, ZG7572) was added to each well, and the plates were kept at room temperature in the dark for 10 minutes. The […] was detected by Spectra max i3 (Molecular Devices). The relative growth rate of the treated cells was compared with that of DMSO control.
readout.name: IC50 (nM)
Answers are plain numbers, in nM.

Sample answers from the record:
substance.smiles	units.of.measure	value.observed
Cc1nccc(Sc2cnc(N3CCC4(CC3)CO[C@@H](C)[C@H]4N)n3ccnc23)c1Cl	nM	50
Nc1cc(Sc2cnc(N3CCC4(CC3)COC[C@H]4N)n3ccnc23)c(Cl)c(Cl)n1	nM	54
Cc1nccc(Sc2cnc(N3CCC4(CC3)CO[C@@H](C)[C@H]4N)n3cnnc23)c1Cl	nM	277

Return reported IC50 values for all items listed beneath this line.
1. C[C@@H]1OCC2(CCN(c3ncc(Sc4cccc(Cl)c4Cl)c4nncn34)CC2)[C@@H]1N
2. Cc1nc(N)cc(Sc2cnc(N3CCC4(CCC[C@H]4N)CC3)n3ccnc23)c1Cl
3. CC1(CN)CCN(c2ncc(Sc3cccc(Cl)c3Cl)c3nncn23)CC1
4. Nc1cc(Sc2cnc(N3CCC4(CCC[C@H]4N)CC3)n3ccnc23)c(Cl)c(Cl)n1
5. C[C@@H]1OCC2(CCN(c3ncc(Sc4ccnc(N)c4Cl)c4nncn34)CC2)[C@@H]1N
6. COc1ccccc1Sc1cnc(N2CCC3(CCC[C@H]3N)CC2)n2ccnc12

1: 158; 2: 210; 3: 1360; 4: 16; 5: 102; 6: 210

* * *

Give pIC50 for every item shown.
# assay.system: SHP2^E76A protein (Homo sapiens (Human), UniProt Q06124, E76A)
# Sequence (Q06124 whole entry E76A): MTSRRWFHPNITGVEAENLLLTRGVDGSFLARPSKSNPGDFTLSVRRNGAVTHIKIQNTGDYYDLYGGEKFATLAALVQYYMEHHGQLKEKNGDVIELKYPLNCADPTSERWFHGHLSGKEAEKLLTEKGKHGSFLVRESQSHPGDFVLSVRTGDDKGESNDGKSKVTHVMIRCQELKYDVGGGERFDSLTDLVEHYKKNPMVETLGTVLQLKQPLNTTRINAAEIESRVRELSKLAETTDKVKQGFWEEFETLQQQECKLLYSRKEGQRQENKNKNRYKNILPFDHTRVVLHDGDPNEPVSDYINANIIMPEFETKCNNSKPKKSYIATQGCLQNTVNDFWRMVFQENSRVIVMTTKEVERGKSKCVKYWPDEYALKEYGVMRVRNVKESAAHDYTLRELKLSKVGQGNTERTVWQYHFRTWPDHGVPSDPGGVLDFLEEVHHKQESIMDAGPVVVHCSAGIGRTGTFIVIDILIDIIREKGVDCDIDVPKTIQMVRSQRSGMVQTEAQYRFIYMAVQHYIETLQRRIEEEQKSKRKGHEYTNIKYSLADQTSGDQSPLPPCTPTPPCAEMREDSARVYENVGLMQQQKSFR
# assay.name: SHP2 enzyme activity inhibition experiment
# Format: biochemical
# test.conditions: SHP2 enzyme activity, Tables 1.1 and 1.2; read-out: IC50
pIC50: −log10 of the molar value.

Please review the entries below; each comes with its answer.
molecule	pIC50
CC1C[C@@H](N)C2(CCN(c3ncc(Sc4ccnc(Cl)c4Cl)c4nccn34)CC2)C1 (stereo partly drawn)	> 7.00
N[C@@H]1CCCC12CCN(c1ncc(Sc3cccnc3)c3ncnn13)CC2	5.00 to 6.00
N[C@@H]1CCCC12CCN(c1ncc(Sc3ccccc3)c3ncnn13)CC2	5.00 to 6.00
N[C@@H]1CCCC12CCN(c1ncc(Sc3ccncc3Cl)c3nncn13)CC2	6.00 to 7.00
Nc1nccc(Sc2cnc(N3CCC4(CCC[C@H]4N)CC3)n3ncnc23)c1Cl	6.00 to 7.00

Go through the list and state pIC50 for each entry.
1. Nc1cc(Sc2cnc(N3CCC4(CCC[C@H]4N)CC3)n3ccnc23)c(Cl)cn1
2. N[C@@H]1CCCC12CCN(c1ncc(Sc3ccc(Cl)cc3Cl)c3nncn13)CC2
3. N[C@@H]1CCCC12CCN(c1ncc(Sc3cccnc3Cl)c3ncnn13)CC2
4. NC1CCN(c2ncc(Sc3cccc(Cl)c3Cl)c3nccn23)CC1

1. > 7.00
2. 6.00 to 7.00
3. 6.00 to 7.00
4. 6.00 to 7.00

Give me pIC50 for each of these molecules, listed below.
1. N[C@@H]1CCCC12CCN(c1ncc(Sc3cccc(NC(=O)c4c(O)nc5n(c4=O)CCCC5)c3Cl)c3nccn13)CC2
2. COc1ccccc1Sc1cnc(N2CCC3(CCC[C@H]3N)CC2)n2ccnc12
3. Cc1nccc(Sc2cnc(N3CCC4(CC3)CO[C@@H](C)[C@H]4N)n3ncnc23)c1Cl

["6.00 to 7.00", "> 7.00", "6.00 to 7.00"]

Go through the list and state pIC50 for each entry.
1. CC1C[C@@H](N)C2(CCN(c3ncc(Sc4cccc(Cl)c4Cl)c4nccn34)CC2)C1 (stereo partly drawn)
2. CN[C@@H]1CCCC12CCN(c1ncc(Sc3cccc(Cl)c3Cl)c3nncn13)CC2

> 7.00
5.00 to 6.00

Numbers sourced from patent US11498930B2.
